Consider the following molecules and their measured IC50 readings.
- measured-target: UniProtKB P52333
- test-method-notes: Purified kinase assay (Z'-LYTE), JAK3
- Assay type: biochemical
- condition-set: Table 1; read-out: JAK3 IC50
- Protocol: JAK and TYK2 tyrosine phosphorylation activity is measured using the Z′-LYTE™ Technology developed by Invitrogen Corporation (Carlsbad, Calif.). For JAK1, JAK2 and JAK3 the Z′-LYTE™ Kinase Assay Kit-Tyr6 Peptide (part number PV4122) was used. […] The Z′-LYTE™ biochemical assay employs a fluorescence resonance energy transfer (FRET) coupled-enzyme format and is based on the differential sensitivity of phosphorylated and non-phosphorylated peptides to proteolytic cleavage. […]

Examples with answers:
NC(=O)c1nnc(Nc2ccc(N3CCOCC3)cn2)cc1NCc1cccc(F)c1 | 0.001 to 0.01 µM
CC(=O)N1CCN(c2ccc(Nc3cc(NCc4cccc(F)c4)c(C(N)=O)nn3)cc2)CC1 | 0.001 to 0.01 µM

Please examine the following record next.
Form field: IC50 recorded for CCn1cc(Nc2cc(NCc3cccc(F)c3)c(C(N)=O)nn2)cn1 with UniProtKB P52333 (enter value)
0.01 to 0.1 µM

----------
- measured-target: JAK3 (Homo sapiens (Human))
- test-method-notes: Purified kinase assay (Z'-LYTE), JAK3
- Assay type: biochemical
- condition-set: Table 1; read-out: JAK3 IC50
reported-property: IC50

Examples with answers:
CC(=O)N1CCN(c2ccc(Nc3cc(NCc4cc(-n5ccnc5)ccc4F)c(C(N)=O)nn3)cc2)CC1 | 10 to 100 nM
NC(=O)c1nnc(Nc2ccc3c(c2)CS(=O)(=O)C3)cc1NCc1cccc(F)c1 | 10 to 100 nM
CC(C)n1cc(Nc2cc(NCc3cccc(F)c3F)c(C(N)=O)nn2)cn1 | 10 to 100 nM
CC(=O)N1CCN(c2ccc(Nc3cc(NCC(C)C)c(C(N)=O)nn3)cc2)CC1 | 100 to 1000 nM
CC(=O)N1CCN(c2ccc(Nc3cc(NCc4ccccn4)c(C(N)=O)nn3)cc2)CC1 | 100 to 1000 nM
CC(=O)N1CCN(c2ccc(Nc3cc(NC4CCN(c5ccc(C#N)cn5)CC4)c(C(N)=O)nn3)cc2)CC1 | 10 to 100 nM

// lookup IC50 for NC(=O)c1nnc(Nc2ccc(N3CCOCC3)cc2)cc1NC1CCC1
100 to 1000 nM

// lookup IC50 for CCn1cc(Nc2cc(NCc3cccc4ccsc34)c(C(N)=O)nn2)cn1
1 to 10 nM

----------
- measured-target: JAK3 (Homo sapiens (Human), UniProt P52333)
- Sequence (P52333 822-1111): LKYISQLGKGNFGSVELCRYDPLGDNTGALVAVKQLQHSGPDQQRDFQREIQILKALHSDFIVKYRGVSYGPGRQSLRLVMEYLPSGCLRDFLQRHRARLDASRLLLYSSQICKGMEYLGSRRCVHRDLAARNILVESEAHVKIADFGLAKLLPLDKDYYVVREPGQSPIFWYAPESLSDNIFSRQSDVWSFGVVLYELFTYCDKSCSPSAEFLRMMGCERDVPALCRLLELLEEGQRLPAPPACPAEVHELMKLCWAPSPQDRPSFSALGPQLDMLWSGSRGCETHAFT
- test-method-notes: Purified kinase assay (Z'-LYTE), JAK3
- Format: biochemical
- condition-set: Table 1; read-out: JAK3 IC50
- Experimental: JAK and TYK2 tyrosine phosphorylation activity is measured using the Z′-LYTE™ Technology developed by Invitrogen Corporation (Carlsbad, Calif.). For JAK1, JAK2 and JAK3 the Z′-LYTE™ Kinase Assay Kit-Tyr6 Peptide (part number PV4122) was used. […] The Z′-LYTE™ biochemical assay employs a fluorescence resonance energy transfer (FRET) coupled-enzyme format and is based on the differential sensitivity of phosphorylated and non-phosphorylated peptides to proteolytic cleavage. […]
Consider the following compounds and their measured IC50 readings.

CCC(=O)N1CCN(c2ccc(Nc3cc(NCc4c(F)cccc4F)c(C(N)=O)nn3)cc2)CC1 | 1 to 10 nM
NC(=O)c1nnc(Nc2cnn(CC3CC3)c2)cc1NCc1cccc(F)c1 | 10 to 100 nM
CC(=O)N1CCN(c2ccc(Nc3cc(NC(C)C)c(C(N)=O)nn3)cc2)CC1 | > 1000 nM
CS(=O)(=O)CCc1ccc(Nc2cc(NCc3cccc(F)c3)c(C(N)=O)nn2)cc1 | 10 to 100 nM

Form field: IC50 recorded for N#Cc1ccc(N2CCC(Nc3cc(Nc4cnccn4)nnc3C(N)=O)CC2)nc1 with JAK3 (Homo sapiens (Human), UniProt P52333) (enter value)
1 to 10 nM

----------
- measured-target: JAK1 (Homo sapiens (Human))
- Sequence (P23458 875-1153): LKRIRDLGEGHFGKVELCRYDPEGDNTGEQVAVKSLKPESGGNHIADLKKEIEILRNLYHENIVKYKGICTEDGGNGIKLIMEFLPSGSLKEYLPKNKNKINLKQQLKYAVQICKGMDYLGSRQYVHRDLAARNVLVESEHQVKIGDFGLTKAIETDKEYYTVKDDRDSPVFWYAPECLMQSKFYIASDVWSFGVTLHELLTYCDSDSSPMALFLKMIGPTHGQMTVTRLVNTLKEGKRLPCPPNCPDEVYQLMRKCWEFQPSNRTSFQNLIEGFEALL
- test-method-notes: Purified kinase assay (Z'-LYTE), JAK1
- Type: biochemical
- condition-set: Table 1; read-out: JAK1 IC50
reported-property: IC50

Examples with answers:
NC(=O)c1nnc(Nc2ccc(N3CCNCC3)nc2)cc1NCc1cccc(F)c1 | > 1000 nM
CC(=O)Nc1cccc(Nc2cc(NCc3cccc(F)c3)c(C(N)=O)nn2)c1 | > 1000 nM
NC(=O)c1nnc(Nc2cnn(CC3CCOCC3)c2)cc1NCc1cccc2ccsc12 | 100 to 1000 nM

// lookup IC50 for CC(=O)N1CCN(C(=O)c2ccc(Nc3cc(NCc4cccc(F)c4)c(C(N)=O)nn3)cc2)CC1
> 1000 nM

----------
Consider the following compounds and their measured pIC50 readings.
- measured-target: JAK2 (Homo sapiens (Human))
- Sequence (O60674 849-1124): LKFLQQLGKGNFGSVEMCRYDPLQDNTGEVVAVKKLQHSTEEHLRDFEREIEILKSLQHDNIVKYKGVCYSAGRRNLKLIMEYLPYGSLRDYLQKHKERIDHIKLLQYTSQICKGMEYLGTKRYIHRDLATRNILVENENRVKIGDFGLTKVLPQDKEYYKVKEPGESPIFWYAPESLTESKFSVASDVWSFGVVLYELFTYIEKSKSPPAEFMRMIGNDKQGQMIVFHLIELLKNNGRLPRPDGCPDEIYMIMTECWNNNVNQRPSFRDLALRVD
- test-method-notes: Purified kinase assay (Z'-LYTE), JAK2
- Assay type: biochemical
- condition-set: Table 1; read-out: JAK2 IC50
pIC50: −log10 of the molar value.

CC(C)(c1ccc(Nc2cc(NCc3cccc(F)c3)c(C(N)=O)nn2)cc1)S(C)(=O)=O | 6.00 to 7.00
NC(=O)c1nnc(Nc2cnn(C3CCCC3)c2)cc1NCc1cccc2ccsc12 | 7.00 to 8.00
CCC(=O)N1CCC(Cn2cc(Nc3cc(NCc4cccc(F)c4F)c(C(N)=O)nn3)cn2)CC1 | 6.00 to 7.00
CC(c1ccc(Nc2cc(NCc3cccc(F)c3)c(C(N)=O)nn2)cc1)S(C)(=O)=O (stereo not shown) | 6.00 to 7.00
Cn1ccc(Nc2cc(NCc3cccc(F)c3)c(C(N)=O)nn2)n1 | 6.00 to 7.00

Form field: pIC50 recorded for NC(=O)c1nnc(Nc2ccc(N3CCNCC3)cc2)cc1NCc1cccc2ccsc12 with JAK2 (Homo sapiens (Human)) (enter value)
7.00 to 8.00

Form field: pIC50 recorded for CCC(=O)N1CCN(c2ccc(Nc3cc(NCc4cccc(F)c4F)c(C(N)=O)nn3)cc2)CC1 with JAK2 (Homo sapiens (Human)) (enter value)
7.00 to 8.00

Form field: pIC50 recorded for CC(C)CNc1cc(Nc2ccc(N3CCNCC3)cc2)nnc1C(N)=O with JAK2 (Homo sapiens (Human)) (enter value)
< 6.00

Form field: pIC50 recorded for CC(=O)N1CCN(c2ccc(Nc3cc(NCc4cccnc4)c(C(N)=O)nn3)cc2)CC1 with JAK2 (Homo sapiens (Human)) (enter value)
< 6.00

Form field: pIC50 recorded for CC(C)Nc1cc(Nc2ccc(N3CCNCC3)cc2)nnc1C(N)=O with JAK2 (Homo sapiens (Human)) (enter value)
< 6.00

Form field: pIC50 recorded for CC(=O)N1CCN(c2ccc(Nc3cc(NCc4cccs4)c(C(N)=O)nn3)cc2)CC1 with JAK2 (Homo sapiens (Human)) (enter value)
6.00 to 7.00

Form field: pIC50 recorded for CC(=O)N1CCN(c2ccc(Nc3cc(NCc4cc(-c5cccnc5)ccc4F)c(C(N)=O)nn3)cc2)CC1 with JAK2 (Homo sapiens (Human)) (enter value)
6.00 to 7.00

Form field: pIC50 recorded for Cc1cc(Nc2cc(NCc3cccc(F)c3F)c(C(N)=O)nn2)ccc1N1CCOCC1 with JAK2 (Homo sapiens (Human)) (enter value)
< 6.00

----------
- measured-target: UniProt:O60674
- test-method-notes: Purified kinase assay (Z'-LYTE), JAK2
- Format: biochemical
- condition-set: Table 1; read-out: JAK2 IC50
reported-property: IC50

Examples with answers:
CC(=O)N1CCN(c2ccc(Nc3cc(NCc4cccc(C#N)c4)c(C(N)=O)nn3)cc2)CC1 [Compound 72] | 100 to 1000 nM
NC(=O)c1nnc(Nc2ccc(N3CCOCC3)cc2)cc1NC1CCC1 [Compound 6] | 100 to 1000 nM
CC(=O)N1CCN(c2ccc(Nc3cc(NCc4cccc(F)c4)c(C(N)=O)nn3)cc2)CC1 [Compound 19] | 100 to 1000 nM
NC(=O)c1nnc(Nc2ccc(C(=O)N3CCOCC3)cc2)cc1NCc1cccc(F)c1 [Compound 80] | 100 to 1000 nM
NC(=O)c1nnc(Nc2cccc(OCCN3CCCC3)c2)cc1NCc1cccc(F)c1 [Compound 56] | 100 to 1000 nM

// lookup IC50 for NC(=O)c1nnc(Nc2cccc(CN3CCOCC3)c2)cc1NCc1cccc(F)c1 [Compound 48]
100 to 1000 nM

// lookup IC50 for NC(=O)c1nnc(Nc2ccc(C(=O)N3CCCC3)cn2)cc1NCc1cccc(F)c1 [Compound 73]
10 to 100 nM

// lookup IC50 for COc1ccccc1CNc1cc(Nc2ccc(N3CCN(C(C)=O)CC3)cc2)nnc1C(N)=O [Compound 24]
10 to 100 nM

// lookup IC50 for CC(=O)N1CCN(c2ccc(Nc3cc(NCc4cccc(-c5cccnc5)c4)c(C(N)=O)nn3)cc2)CC1 [Compound 70]
100 to 1000 nM

// lookup IC50 for CS(=O)(=O)Cc1ccc(Nc2cc(NCc3cccc(F)c3)c(C(N)=O)nn2)cc1 [Compound 85]
100 to 1000 nM

// lookup IC50 for COc1cccc(CNc2cc(Nc3ccc(N4CCN(C(C)=O)CC4)cc3)nnc2C(N)=O)c1 [Compound 58]
100 to 1000 nM

// lookup IC50 for NC(=O)c1nnc(Nc2ccc(N3CCOCC3)cc2)cc1NCc1cccc(F)c1 [Compound 35]
100 to 1000 nM

// lookup IC50 for CS(=O)(=O)Cc1ccc(Nc2cc(NCc3cc(F)ccc3F)c(C(N)=O)nn2)cc1 [Compound 88]
100 to 1000 nM

// lookup IC50 for CN(c1ccc(Nc2cc(NCc3cccc(F)c3)c(C(N)=O)nn2)cc1)S(C)(=O)=O [Compound 102]
100 to 1000 nM

// lookup IC50 for NC(=O)c1nnc(Nc2ccc(N3CCNCC3)cc2)cc1NCc1cccs1 [Compound 22]
> 1000 nM
